# reported EC50; entries follow
# System: Human immunodeficiency virus
# PROTOCOL NOTES: Antiviral activity against HIV 3B in human MT4 cells assessed as inhibition of virus-induced cytopathogenicity by MTT assay
# Format: functional, organism-based
# EXPERIMENTAL SETUP: Human immunodeficiency virus 1, 3B

Below are worked cases with known answers.
smiles=Cn1cc(C(=O)O)c(=O)c2cc(O)c(N3CCN(c4cnccn4)CC3)cc21 value_type=EC50 measured_value="> 125 mg/L"
smiles=Cn1cc(C(=O)O)c(=O)c2cc(C(F)(F)F)c(N3CCN(c4cccc(C(F)(F)F)c4)CC3)cc21 value_type=EC50 measured_value="> 1.65 mg/L"

Problem: Need EC50 of COc1cc2c(=O)c(C(=O)O)cn(C)c2cc1N1CCN(c2nc3ccccc3s2)CC1 , thanks.
Solution: > 0.05 mg/L

* * *

# System: Human immunodeficiency virus
# PROTOCOL NOTES: Antiviral activity against HIV 3B in human MT4 cells assessed as inhibition of virus-induced cytopathogenicity by MTT assay
# Type: functional, organism-based
# EXPERIMENTAL SETUP: Human immunodeficiency virus 1, 3B
# reported EC50; entries follow

Below are worked cases with known answers.
smiles=Cn1cc(C(=O)O)c(=O)c2cc(C(F)(F)F)c(N3CCN(c4ccccn4)CC3)cc21 measured_value="> 13.9 µg/mL"
smiles=Cn1cc(C(=O)O)c(=O)c2cc(O)c(N3CCN(c4cccc(C(F)(F)F)c4)CC3)cc21 measured_value="≥ 1.13 µg/mL"

Problem: Need EC50 of Cn1cc(C(=O)O)c(=O)c2cc(C(F)(F)F)c(N3CCN(c4nc5ccccc5s4)CC3)cc21 , thanks.
Solution: > 0.54 µg/mL

Problem: Need EC50 of Cn1cc(C(=O)O)c(=O)c2cc(O)c(N3CCN(c4nc5ccccc5s4)CC3)cc21 , thanks.
Solution: > 0.02 µg/mL
